test: physchem; type: physicochemical; conditions: McIlvaine buffer pH 6.8 containing 2.5% DMSO, pH 6.8, aqueous buffer, kinetic from dmso stock, McIlvaine buffer pH 6.8, 2.5% DMSO, 24 h
Measure: solubility at 24 h
Write the figure, then the unit, nothing else.

query: What measured solubility at 24 h goes with CC(O)c1cc(C#N)ccc1C1C2=C(CCC2=O)N(c2cccc(C(F)(F)F)c2)C(=O)N1C (stereo not drawn) ?
result: 65 µg/mL

query: Any idea what its solubility at 24 h is? The compound is CN1C(=O)N(c2cccc(C(F)(F)F)c2)C2=C(C(=O)CC2)[C@H]1c1ccc(C#N)cc1S(=O)(=O)CCO
result: 73 µg/mL

query: Query: solubility at 24 h; subject: CN1C(=O)N(c2cccc(C(F)(F)F)c2)C2=C(C(=O)CC2)C1c1ccc(C#N)cc1CO (single isomer, unassigned)
result: 58 µg/mL

query: For the compound CN1C(=O)N(c2cccc(C(F)(F)F)c2)C2=C(C(=O)CC2)C1c1ccc(C#N)cc1S(=O)(=O)CCCO (single isomer, unassigned) , what solubility at 24 h is on record?
result: 93 µg/mL

query: Would you mind telling me what solubility at 24 h value was observed for CCNC(=O)N1C(=O)N(c2ccnc(C(F)(F)F)c2)C2=C(C(=O)CC2)C1c1ccc(C#N)cc1S(=O)(=O)CC (single isomer, unassigned) ?
result: 81 µg/mL

query: Given the entry CCNC(=O)N1C(=O)N(c2cc(C(F)(F)F)ccn2)C2=C(C(=O)CC2)C1c1ccc(C#N)cc1S(C)(=O)=O (stereo not drawn) , report its measured solubility at 24 h.
result: 78 µg/mL

query: Could you share which solubility at 24 h value was measured for CCS(=O)(=O)c1cc(C#N)ccc1C1NC(=O)N(c2cccc(C(F)F)c2)C2=C1C(=O)CC2 (single isomer, unassigned) ?
result: 67 µg/mL

query: Entry CN1C(=O)N(c2cccc(C(F)(F)F)c2)C2=C(C(=O)CC2)[C@H]1c1ccc(C#N)cc1[S+](C)[O-] (single isomer, unassigned) has what solubility at 24 h?
result: 58 µg/mL

query: Could you share which solubility at 24 h value was measured for CC[S+]([O-])c1cc(C#N)ccc1C1C2=C(CCC2=O)N(c2cccc(C(F)(F)F)c2)C(=O)N1C (single isomer, unassigned) ?
result: 86 µg/mL
